Target: T1, murine CD300LB-Fc (mouse)
T1 construct: mouse IgG2a-Fc fusion (R&D Systems); the entry is the whole fusion chain; also called mCD300LB; Mouse CD300LB-Fc
T1 chain: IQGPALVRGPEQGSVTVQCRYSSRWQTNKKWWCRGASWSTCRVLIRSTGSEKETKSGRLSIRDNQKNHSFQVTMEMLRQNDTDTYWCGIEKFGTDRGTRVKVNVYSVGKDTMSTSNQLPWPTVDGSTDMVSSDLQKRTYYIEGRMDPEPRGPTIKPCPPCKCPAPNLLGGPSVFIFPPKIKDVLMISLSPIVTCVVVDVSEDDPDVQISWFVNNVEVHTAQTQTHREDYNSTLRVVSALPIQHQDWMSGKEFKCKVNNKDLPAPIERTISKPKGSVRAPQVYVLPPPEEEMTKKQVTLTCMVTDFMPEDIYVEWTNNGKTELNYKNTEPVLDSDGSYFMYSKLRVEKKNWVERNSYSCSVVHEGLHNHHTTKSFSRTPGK
Assay: SPR (Carterra LSA), antibody immobilised, Fc fusion at 300 or 600 nM
Method: Binding of mouse anti-CD300LB IgG1 antibodies of the present disclosure to human and murine CD300 orthologs were evaluated by surface plasmon resonance (SPR) using a Carterra LSA instrument (Carterra, Salt Lake City, UT). […] Binding was assessed by injecting each analyte over the entire antibody array using the single channel flow cell. […] Data were processed and analyzed using NextGenKIT high-throughput kinetics analysis software (Carterra). […]
If the reported SPR binding (control subtracted) equals or exceeds 90, assign yes. If not, assign no.

anti-CD300LB antibody CD-10 (antibody, V domains shown) VH: QVQLQQSGPELVRPGVSVKISCKGSGYTFTDYAMHWVKQSHVRSREWIGVIGTYNGHTNYNQKFKGKATMTVDKSSSTAYLELARLTSEDSAIYYCARSGSYYYSMDYWGQGTSVTVSS VL: QIVLTQSPAIMSASPGEKVTMTCSASSSVNYMHWYQQKSGTSPKRWIYDTSKLSSGVPARFSGSGSGTSYSLTISTMEAEDAATYYCQQWSSNPPMTFGGGTKLEIK :: yes

# input Entry anti-CD300LB antibody CD-13 (antibody, V domains shown) VH: QIQLVQSGPELKKPGETVKISCKASGYTFTDYSMHWVKQAPGKGFKWMAWINTETGAPTHADDFRGRFAFSLETSASTAFLQISNLKTEDTATYFCVTFGKSYGMNYWGQGTSVTVSS VL: DIVLTQSPASLSVSLGQRATISCRASKSVGSSGSSYLHWYQQKPGQPPKLLIYLASNLESGVPARFSGSGSGTEFTLNIHPVEEEDAATYYCQHNAEVPPTFGGGTKLEIK : is its SPR binding (control subtracted) no less than 90?
# output no

# input Entry anti-CD300LB antibody CD-15 (antibody, V domains shown) VH: QIQLVQSGPELKKPGETVKISCQVSGYTFTDYSMHWLKQAPGKGLKWMAWINTETGESTYTDEFKGRFVFSLETSVRTAYLKINNLKNEDTATYFCGTYGSSYGMAYWGQGTSVTVSS VL: DIVLTQSPASLPVSLGQRATISCRASKSVSTSGSSYLHWYQQKPGQPPKLLIYLASKLESGVPARFRGSGSGTDFTLNIHPVEEEDAATYYCQHNREVPPTFGGGTKLEIK : is its SPR binding (control subtracted) no less than 90?
# output no

# input Entry anti-CD300LB antibody CD-17 (antibody, V domains shown) VH: QIQLVQSGPELKKPGETVKISCKASGYTLTDYSMHWVKQAPGKGLKWMGWINTETGEPRYGDDFKGRFAFSLETSASSAYLQINNLKNDDTATYFCATYGRSYGMDFWGQGTSVTVSS VL: DIVLTQSPASLAVSLGQRATISCRASKSVSPSGHSYMHWYQQKPGQPPKLLIYLASNLKSGVPARFSGSGSGTDFTLNIHPVEEGDAATYYCQHNRELPPTFGGGSKLEIK : is its SPR binding (control subtracted) no less than 90?
# output no

# input Entry anti-CD300LB antibody CD-16 (antibody, V domains shown) VH: QIQLVQSGPELKKPGETVKISCKASGYTFTDYSMHWVKQAPGKGLKWMAWINTETGEPTYADDFRGRFAFSLETSGRTAYLEINNLRNEDTATYFCVTYGSSYGMAYWGQGTSVTVSS VL: DIVLTQSPASLAVSLGQRATISCRASKSVSRSGYSYLHWYQQKPGQPPKLLIYLASKLESGVPARFSGSGSGTDFTLNIHPVEAEDAATYYCQHNREIPPTFGGGTKLEIK : is its SPR binding (control subtracted) no less than 90?
# output yes

# input Entry anti-CD300LB antibody CD-12 (antibody, V domains shown) VH: QIQLVQSGPELKKPGETVKISCKASGYTFTDYSMHWVRQAPGKGLKWMAWINTETGEATHADDFKGRFDFSLDTSASTAYLQIKNLKNEDTGIYFCVCYGSSYGMDYWGQGTSVTVSS VL: DIVLTQSPASLPVSLGQRATISCRASKSVRTSGASYMHWYQQKPGQPPKLLIYLASNLKSGVPTRFSGSGSGTDFTLNIHPVEEEDAATYYCQHNREVPPTFGGGTKLEIK : is its SPR binding (control subtracted) no less than 90?
# output no

# input Entry anti-CD300LB antibody CD-14 (antibody, V domains shown) VH: QIQLVQSGPELKKPGETVKISCKASGYTFTDYSLHWVKQTPEKNLKWMAWINTETGAPTYADDFKGRFAFSLETSSNTAYLLINNLKNEDTATYFCALTMVNYWGQGTTLTVSS VL: DIVMTQSQKFMSTSVGDRVSVTCKASQNVGIRVAWHQQKPGQSPKTLIYSTSYRYSGVPDRFTGSGSGTEFILTISNVQSEDLAEYFCQQYNSYPYTFGGGTKLEIK : is its SPR binding (control subtracted) no less than 90?
# output no

# input Entry anti-CD300LB antibody CD-18 (antibody, V domains shown) VH: DVQLQESGPDLVKPSQSLSLTCTVTGYSITSGYSWHWIRQFPDNKLEWMGYILSRGDTNFNPSLKSRISITRSTSNNQFFLHFNSVTTEDTATYYCARDFFDYWGQGTTLTVSS VL: DVLMTQTPLSLPVSLGDQASISCRSSQSIVHSNGNTYLEWYLQKPGQSPKLLIYKVSDRFSGVPDRFSGSGSGTDFTLKISRVEAEDLGVYFCFQGSHVPYTFGGGTKLEIK : is its SPR binding (control subtracted) no less than 90?
# output yes
